- EXPERIMENT DESCRIPTION: clinical
- CONDITION: human, in vivo, po, 105 mg
OUTCOME MEASURE: AUC(0-t) at 12 h
Please report the result as a number followed by the unit.

Request: What measured AUC(0-t) at 12 h goes with C[C@H](NC(C)(C)C)C(=O)c1cccc(Cl)c1 [S-bupropion, (S)-bupropion] ?
Result: 793 ng·h/mL
